Target: human COX-2 (Homo sapiens, UniProt P35354)
Construct: human COX-2 (143.98.2 from human osteosarcoma), respectively; endogenous in cells; host or cells: 143.98.2 (human osteosarcoma)
Sequence (P35354 18-604): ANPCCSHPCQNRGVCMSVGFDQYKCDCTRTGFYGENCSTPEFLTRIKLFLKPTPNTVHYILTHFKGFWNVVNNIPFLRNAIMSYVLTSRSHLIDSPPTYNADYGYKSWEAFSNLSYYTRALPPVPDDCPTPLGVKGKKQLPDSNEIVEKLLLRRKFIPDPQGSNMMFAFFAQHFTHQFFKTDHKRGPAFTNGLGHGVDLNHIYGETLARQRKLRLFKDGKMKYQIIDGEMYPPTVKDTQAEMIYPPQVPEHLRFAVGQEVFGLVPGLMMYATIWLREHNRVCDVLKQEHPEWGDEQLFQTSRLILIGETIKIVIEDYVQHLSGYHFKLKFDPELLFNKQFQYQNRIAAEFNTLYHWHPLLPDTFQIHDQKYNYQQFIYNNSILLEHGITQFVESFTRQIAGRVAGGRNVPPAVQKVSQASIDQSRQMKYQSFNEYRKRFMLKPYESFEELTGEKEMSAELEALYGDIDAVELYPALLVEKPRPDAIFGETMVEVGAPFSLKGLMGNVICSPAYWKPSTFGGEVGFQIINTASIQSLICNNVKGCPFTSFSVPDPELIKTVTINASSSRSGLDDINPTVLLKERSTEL
Experiment: Inhibition of COX-2 activity (PGE2 production after arachidonic acid) in 143.98.2 osteosarcoma cells
Assay type: cell-based
Conditions: 0.1 μM test compound, PGE2 production after 10 μM arachidonic acid
Counter-ions that a name gives are not always drawn.
measurement-label: inhibition at 0.1 µM
Could you kindly put the unit after your number?

Field: example entries. Status: answers known.
{"compound": "NS(=O)(=O)c1ccc(-n2cnc(Cl)c2-c2ccc(N3CCCC3)cc2)cc1 [Example 5, hydrochloride]", "result": "70%"}
{"compound": "CS(=O)(=O)c1ccc(-n2cnc(Cl)c2-c2ccc(N3CCCC3)nc2)cc1 [Example 12]", "result": "79%"}
{"compound": "CS(=O)(=O)c1ccc(-n2cnc(Cl)c2-c2ccc(N3C(=O)CCC3=O)cc2)cc1 [Example 7]", "result": "72%"}

I need inhibition at 0.1 µM for every entry listed below, if you could help.
1. CS(=O)(=O)c1ccc(C2=C(c3ccc(N4CCCC4)nc3)C(=O)OC2)cc1 [Example 17]
2. CC1CCCN1c1ccc(-c2c(Cl)ncn2-c2ccc(S(C)(=O)=O)cc2)cc1 (centres unmarked) [Example 4]
3. CS(=O)(=O)c1ccc(-n2cnc(Cl)c2-c2ccc(N3CCCC3)cc2)cc1 [Example 1]
4. CS(=O)(=O)c1ccc(-n2cnc(Cl)c2-c2ccc(N3CCC(O)C3)cc2)cc1 (centres unmarked) [Example 3]
5. CS(=O)(=O)c1ccc(-n2cnc(Cl)c2-c2ccc(N3CCOC3=O)cc2)cc1 [Example 9]
6. CS(=O)(=O)c1ccc(C2=C(c3ccc(N4CCCC4)c(Cl)c3)C(=O)OC2)cc1 [Example 16]
7. CS(=O)(=O)c1ccc(C2=C(c3ccc(N4CC=CC4=O)cc3)C(=O)OC2)cc1 [Example 14]
8. CS(=O)(=O)c1ccc(-n2cnc(Cl)c2-c2ccc(N3CCCC3=O)cc2)cc1 [Example 10]

Result:
81%
72%
61%
75%
72%
93%
49%
61%

I need inhibition at 0.1 µM for every entry listed below, if you could help.
1. CS(=O)(=O)c1ccc(-n2cnc(Cl)c2-c2ccc(N3CCCC3)c(Cl)c2)cc1 [Example 6]
2. CS(=O)(=O)c1ccc(C2=C(c3ccc(N4CCCC4)cc3)C(=O)OC2)cc1 [Example 15]
3. CS(=O)(=O)c1ccc(-n2cnc(Cl)c2-c2ccc(N3CC=CC3=O)cc2)cc1 [Example 8]

Result:
1: 89%; 2: 81%; 3: 76%

Source of measurements: patent US20030114456A1
